system: NCI-H1703 human non-small cell lung squamous carcinoma cells; assay: PDGFRA-related cell proliferation experiment (Cell Titer Glo); type: cell-based; conditions: 72 h, 3 days, CTG, read-out: Cytological experiment PDGFRA IC50
Could you please report measured IC50 for the items listed next?
A number alone suffices; assume nM.

Item `CCN1CCCn2c1ncc(-c1ccc(Cc3c[nH]c4ncccc34)c(C)n1)c2=O` has what recorded IC50? 3540

Please do the same for `Cc1nc(-c2cnc3n(c2=O)CCCN3C)ccc1Cc1c[nH]c2ncc(-c3cnn(C)c3)cc12` as well. 447

Please do the same for `CCN1CCCn2c1ncc(-c1ccc(Cc3c[nH]c4ncc(-c5cnn(C)c5)cc34)c(C)n1)c2=O` as well. 57.2

Please do the same for `CCN1CCCn2c1ncc(-c1ccc(Cc3c[nH]c4ncc(Cl)cc34)c(C)n1)c2=O` as well. 1030

====

Could you please report measured IC50 for the items listed next?
target: CSF-1R (Homo sapiens)
Sequence (P07333 20-972): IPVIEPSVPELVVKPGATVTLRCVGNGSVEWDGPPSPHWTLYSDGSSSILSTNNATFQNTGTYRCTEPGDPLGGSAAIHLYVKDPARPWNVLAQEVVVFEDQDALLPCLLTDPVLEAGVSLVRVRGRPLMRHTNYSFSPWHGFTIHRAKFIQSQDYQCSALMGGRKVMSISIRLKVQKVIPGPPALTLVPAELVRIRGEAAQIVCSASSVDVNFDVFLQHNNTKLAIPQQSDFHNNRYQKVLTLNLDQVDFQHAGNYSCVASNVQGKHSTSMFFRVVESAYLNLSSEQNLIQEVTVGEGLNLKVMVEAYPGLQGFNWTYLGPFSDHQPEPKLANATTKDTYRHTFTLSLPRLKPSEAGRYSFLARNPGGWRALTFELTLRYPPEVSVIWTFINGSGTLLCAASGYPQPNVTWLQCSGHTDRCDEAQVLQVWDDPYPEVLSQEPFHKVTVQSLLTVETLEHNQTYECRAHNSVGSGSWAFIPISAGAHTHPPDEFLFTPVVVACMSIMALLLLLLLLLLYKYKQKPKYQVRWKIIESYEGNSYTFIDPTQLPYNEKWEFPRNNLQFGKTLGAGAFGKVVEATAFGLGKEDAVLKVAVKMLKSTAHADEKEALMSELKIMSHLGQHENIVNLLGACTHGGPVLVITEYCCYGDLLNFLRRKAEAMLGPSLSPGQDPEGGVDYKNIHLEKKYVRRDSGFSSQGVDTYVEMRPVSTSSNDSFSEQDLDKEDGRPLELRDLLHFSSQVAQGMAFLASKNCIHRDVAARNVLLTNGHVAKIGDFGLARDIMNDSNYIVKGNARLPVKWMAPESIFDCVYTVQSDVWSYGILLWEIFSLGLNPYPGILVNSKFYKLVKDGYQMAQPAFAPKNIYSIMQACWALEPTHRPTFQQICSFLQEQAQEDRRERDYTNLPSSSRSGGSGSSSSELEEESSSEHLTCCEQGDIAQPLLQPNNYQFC
A number alone suffices; assume nM.

Item Cc1nc(-c2cnc3n(c2=O)CCCN3C)ccc1Cc1c[nH]c2ncc(-c3cnn(C)c3)cc12 [Example 18] has what recorded IC50? 4.34

Please do the same for Cc1nc(-c2cnc(NC(C)C)n(C)c2=O)ccc1Cc1c[nH]c2ncc(Cl)cc12 [Example 10] as well. 32.1

Please do the same for Cc1nc(-c2cnc(NC(C)C)n(C)c2=O)ccc1C(C)c1c[nH]c2ncc(Cl)cc12 (stereo not drawn) [Example 12] as well. 289

Please do the same for Cc1nc(-c2cnc3n(c2=O)CCCN3C)ccc1Cc1c[nH]c2ncc(F)cc12 [Example 20] as well. 46.1

Please do the same for Cc1nc(-c2cnc3n(c2=O)CCCN3C)ccc1Cc1c[nH]c2ncc(O)cc12 [Example 23] as well. 38.9

Please do the same for Cc1nc(-c2cnc3n(c2=O)CCC(C)N3C)ccc1Cc1c[nH]c2ncc(Cl)cc12 (stereo not drawn) [Example 15] as well. 49.5

Please do the same for CCN1CCCn2c1ncc(-c1ccc(Cc3c[nH]c4ncc(-c5cnn(C)c5)cc34)c(C)n1)c2=O [Example 17] as well. 5.35

Please do the same for Cc1cnc2[nH]cc(Cc3ccc(-c4cnc5n(c4=O)CCCN5C)nc3C)c2c1 [Example 21] as well. 96.3

Please do the same for Cc1nc(-c2cnc(NC(C)C)[nH]c2=O)ccc1Cc1c[nH]c2ncc(OCCO)cc12 [Example 4] as well. 36.4

Please do the same for Cc1nc(-c2cnc(NC(C)C)[nH]c2=O)ccc1Cc1c[nH]c2ncccc12 [Example 1] as well. 27.4

Please do the same for Cc1nc(-c2cnc(NC(C)C)[nH]c2=O)ccc1Cc1c[nH]c2ncc(F)cc12 [Example 5] as well. 45.9

Please do the same for Cc1nc(-c2cnc3n(c2=O)CCCN3C)ccc1Cc1c[nH]c2ncc(Cl)cc12 [Example 13] as well. 65.6

====

tested on: NCI-H1703 human non-small cell lung squamous carcinoma cells; assay: PDGFRA-related cell proliferation experiment (Cell Titer Glo); assay type: cell-based; details: 72 h, 3 days, CTG, read-out: Cytological experiment PDGFRA IC50
Could you please report measured IC50 for the items listed next?

Item `Cc1nc(-c2cnc(NC(C)C)n(C)c2=O)ccc1Cc1c[nH]c2ncccc12` has what recorded IC50? > 6 µM

Please do the same for `Cc1nc(-c2cnc3n(c2=O)CCCN3C)ccc1Cc1c[nH]c2ncc(F)cc12` as well. > 18 µM

Please do the same for `Cc1nc(-c2cnc3n(c2=O)CCCN3C)ccc1Cc1c[nH]c2ncc(O)cc12` as well. > 6 µM

Please do the same for `Cc1nc(-c2cnc(NC(C)C)[nH]c2=O)ccc1Cc1c[nH]c2ncc(F)cc12` as well. 1.82 µM

Please do the same for `Cc1nc(-c2cnc3n(c2=O)CCCN3C)ccc1Cc1c[nH]c2ncc(Cl)cc12` as well. > 6 µM

====

system: M-NFS-60 mouse myeloid leukemia lymphocytes; test: CSF-1R-related cell proliferation experiment (Cell Titer Glo); format: cell-based; settings: Lymphocyte, 72 h, M-NFS-60 cells, 3 days, CTG, absolute half maximal inhibitory concentration, read-out: Cytological experiment CSF-1R Absolute IC50
measurement-kind: IC50 (nM)
A number alone suffices; assume nM.

Write down the reported IC50 of `CCN1CCCn2c1ncc(-c1ccc(Cc3c[nH]c4ncc(-c5cnn(C)c5)cc34)c(C)n1)c2=O` , test system: M-NFS-60 mouse myeloid leukemia lymphocytes. 5

====

tested on: NCI-H1703 human non-small cell lung squamous carcinoma cells; assay: PDGFRA-related cell proliferation experiment (Cell Titer Glo); format: cell-based; conditions: 72 h, 3 days, CTG, read-out: Cytological experiment PDGFRA IC50
measurement-kind: IC50

Item `COc1cnc2[nH]cc(Cc3ccc(-c4cnc5n(c4=O)CCCN5C)nc3C)c2c1` has what recorded IC50? > 2 µM

Please do the same for Cc1nc(-c2cnc3n(c2=O)CCC(C)N3C)ccc1Cc1c[nH]c2ncc(Cl)cc12 (stereo not shown) as well. > 2 µM

Please do the same for `Cc1cnc2[nH]cc(Cc3ccc(-c4cnc5n(c4=O)CCCN5C)nc3C)c2c1` as well. > 18 µM

Please do the same for `Cc1nc(-c2cnc3n(c2=O)CCCN3C)ccc1Cc1c[nH]c2ncccc12` as well. > 18 µM
